The reported measurements were obtained from ChEMBL document CHEMBL3232850.

Some compounds, each annotated with its measured pIC50.
experiment: Antiinflammatory activity in […] BV2 cells assessed as inhibition of LPS-induced nitric oxide production by Griess assay; format: functional, cell-based; settings: BV-2
Formally, pIC50 is defined as -log10 of the concentration c, with c in mol/L.

Observe how each entry below is paired with its result.
compound	experimental.result
O=c1c(O)c(-c2ccc(O)c(O)c2)oc2cc(O)cc(O)c12 [QUERCETIN]	5.00
COC1C=C(CC[C@@]2(O)[C@H](C)[C@@H](O)[C@@H](OC(C)=O)[C@H]3C(C)(C)CCC[C@@]32C)C(=O)O1 (stereo not given in full)	4.79
CCC(=O)C(OC(C)=O)[C@H]1C(C)(C)CCC[C@]1(C)C(=O)CCC1=CCOC1=O (stereo not given in full)	4.46
CC1=C(CCc2ccoc2)[C@@]2(C)CCCC(C)(C)C2=CC1=O	4.47

Now turn to the next compound.
Exam item: What does the record list as pIC50 for "C[C@@H]1C(=O)C=C2C(C)(C)CCC[C@]2(C)[C@@]1(O)CCc1ccoc1" ?
Marked response: 4.83
